# solubility change mitosis (log2) listing for each entry below
# Test system: HeLa Kyoto
# Assay Comment: solubility change mitosis vs G1/S (difference of NP-40 vs SDS log2 ratios) (log2 ratio difference); higher = more soluble in mitosis
Reply briefly: the number, and no unit.

See these solved cases before continuing.
{"Sequence Text": "MLSLDFLDDVRRMNKRQLYYQVLNFGMIVSSALMIWKGLMVITGSESPIVVVLSGSMEPAFHRGDLLFLTNRVEDPIRVGEIVVFRIEGREIPIVHRVLKIHEKQNGHIKFLTKGDNNAVDDRGLYKQGQHWLEKKDVVGRARGFVPYIGIVTILMNDYPKFKYAVLFLLGLFVLVHRE [SEC11A]", "Readout Name": "solubility change mitosis (log2)", "Observed Value": -0.117}
{"Sequence Text": "MSELEQLRQEAEQLRNQIRDARKACGDSTLTQITAGLDPVGRIQMRTRRTLRGHLAKIYAMHWGTDSRLLVSASQDGKLIIWDSYTTNKVHAIPLRSSWVMTCAYAPSGNFVACGGLDNICSIYSLKTREGNVRVSRELPGHTGYLSCCRFLDDNQIITSSGDTTCALWDIETGQQTVGFAGHSGDVMSLSLAPDGRTFVSGACDASIKLWDVRDSMCRQTFIGHESDINAVAFFPNGYAFTTGSDDATCRLFDLRADQELLMYSHDNIICGITSVAFSRSGRLLLAGYDDFNCNIWDAMKGDRAGVLAGHDNRVSCLGVTDDGMAVATGSWDSFLKIWN [GNB2]", "Readout Name": "solubility change mitosis (log2)", "Observed Value": -0.136}
{"Sequence Text": "MASRGRRPEHGGPPELFYDETEARKYVRNSRMIDIQTRMAGRALELLYLPENKPCYLLDIGCGTGLSGSYLSDEGHYWVGLDISPAMLDEAVDREIEGDLLLGDMGQGIPFKPGTFDGCISISAVQWLCNANKKSENPAKRLYCFFASLFSVLVRGSRAVLQLYPENSEQLELITTQATKAGFSGGMVVDYPNSAKAKKFYLCLFSGPSTFIPEGLSENQDEVEPRESVFTNERFPLRMSRRGMVRKSRAWVLEKKERHRRQGREVRPDTQYTGRKRKPRF [WBSCR22]", "Readout Name": "solubility change mitosis (log2)", "Observed Value": 0.0973}
{"Sequence Text": "MDGEEKTYGGCEGPDAMYVKLISSDGHEFIVKREHALTSGTIKAMLSGPGQFAENETNEVNFREIPSHVLSKVCMYFTYKVRYTNSSTEIPEFPIAPEIALELLMAANFLDC [TCEB1]", "Readout Name": "solubility change mitosis (log2)", "Observed Value": -0.0906}
{"Sequence Text": "MLPLLRCVPRVLGSSVAGLRAAAPASPFRQLLQPAPRLCTRPFGLLSVRAGSERRPGLLRPRGPCACGCGCGSLHTDGDKAFVDFLSDEIKEERKIQKHKTLPKMSGGWELELNGTEAKLVRKVAGEKITVTFNINNSIPPTFDGEEEPSQGQKVEEQEPELTSTPNFVVEVIKNDDGKKALVLDCHYPEDEVGQEDEAESDIFSIREVSFQSTGESEWKDTNYTLNTDSLDWALYDHLMDFLADRGVDNTFADELVELSTALEHQEYITFLEDLKSFVKSQ [C1QBP]", "Readout Name": "solubility change mitosis (log2)", "Observed Value": 0.179}

Identify solubility change mitosis (log2) associated with the sequence MVNPGSSSQPPPVTAGSLSWKRCAGCGGKIADRFLLYAMDSYWHSRCLKCSCCQAQLGDIGTSCYTKSGMILCRNDYIRLFGNSGACSACGQSIPASELVMRAQGNVYHLKCFTCSTCRNRLVPGDRFHYINGSLFCEHDRPTALINGHLNSLQSNPLLPDQKVC [LMO4]
-0.0181

Give the measured solubility change mitosis (log2) for MSKSLKKLVEESREKNQPEVDMSDRGISNMLDVNGLFTLSHITQLVLSHNKLTMVPPNIAELKNLEVLNFFNNQIEELPTQISSLQKLKHLNLGMNRLNTLPRGFGSLPALEVLDLTYNNLSENSLPGNFFYLTTLRALYLSDNDFEILPPDIGKLTKLQILSLRDNDLISLPKEIGELTQLKELHIQGNRLTVLPPELGNLDLTGQKQVFKAENNPWVTPIADQFQLGVSHVFEYIRSETYKYLYGRHMQANPEPPKKNNDKSKKISRKPLAAKNR [RSU1]
0.203

Identify measured solubility change mitosis (log2) associated with MASQLQNRLRSALALVTGAGSGIGRAVSVRLAGEGATVAACDLDRAAAQETVRLLGGPGSKEGPPRGNHAAFQADVSEARAARCLLEQVQACFSRPPSVVVSCAGITQDEFLLHMSEDDWDKVIAVNLKGTFLVTQAAAQALVSNGCRGSIINISSIVGKVGNVGQTNYAASKAGVIGLTQTAARELGRHGIRCNSVLPGFIATPMTQKVPQKVVDKITEMIPMGHLGDPEDVADVVAFLASEDSGYITGTSVEVTGGLFM [HSD17B8]
0.119

Please list solubility change mitosis (log2) recorded for the sequence MNSSTSTMSEEPDALSVVNQLRDLAADPLNRRAIVQDQGCLPGLILFMDHPNPPVVHSALLALRYLAECRANREKMKGELGMMLSLQNVIQKTTTPGETKLLASEIYDILQSSNMADGDSFNEMNSRRRKAQFFLGTTNKRAKTVVLHIDGLDDTSRRNLCEEALLKIKGVISFTFQMAVQRCVVRIRSDLKAEALASAIASTKVMKAQQVVKSESGEEMLVPFQDTPVEVEQNTELPDYLPEDESPTKEQDKAVSRVGSHPEGGASWLSTAANFLSRSFYW [ARMC1]
0.0691

Give me measured solubility change mitosis (log2), please, for this sequence: MARSVRVLVDMDGVLADFEAGLLRGFRRRFPEEPHVPLEQRRGFLAREQYRALRPDLADKVASVYEAPGFFLDLEPIPGALDAVREMNDLPDTQVFICTSPLLKYHHCVGEKYRWVEQHLGPQFVERIILTRDKTVVLGDLLIDDKDTVRGQEETPSWEHILFTCCHNRHLVLPPTRRRLLSWSDNWREILDSKRGAAQRE [NT5C]
-0.172

For MEVPPPAPRSFLCRALCLFPRVFAAEAVTADSEVLEERQKRLPYVPEPYYPESGWDRLRELFGKDEQQRISKDLANICKTAATAGIIGWVYGGIPAFIHAKQQYIEQSQAEIYHNRFDAVQSAHRAATRGFIRYGWRWGWRTAVFVTIFNTVNTSLNVYRNKDALSHFVIAGAVTGSLFRINVGLRGLVAGGIIGALLGTPVGGLLMAFQKYSGETVQERKQKDRKALHELKLEEWKGRLQVTEHLPEKIESSLQEDEPENDAKKIEALLNLPRNPSVIDKQDKD [TIMMDC1] , write its solubility change mitosis (log2).
0.01

====

# Test system: HeLa Kyoto
# Assay Comment: thermal stability score vs G1/S (z-score of summed log2 fold changes over temperatures); higher = more thermally stable than in G1/S
# Condition Parameters: cell cycle stage: early G1 (4.5 h after nocodazole release)
Entries annotated with measured thermal stability score
Enter a number only.

Observe how each entry below is paired with its result.
{"Substance": "CTDSPL2", "System": "HeLa Kyoto", "thermal stability score": 2.66}
{"Substance": "MLSLRVPLAPITDPQQLQLSPLKGLSLVDKENTPPALSGTRVLASKTARRIFQEPTEPKTKAAAPGVEDEPLLRENPRRFVIFPIEYHDIWQMYKKAEASFWTAEEVDLSKDIQHWESLKPEERYFISHVLAFFAASDGIVNENLVERFSQEVQITEARCFYGFQIAMENIHSEMYSLLIDTYIKDPKEREFLFNAIETMPCVKKKADWALRWIGDKEATYGERVVAFAAVEGIFFSGSFASIFWLKKRGLMPGLTFSNELISRDEGLHCDFACLMFKHLVHKPSEERVREIIINAVRIEQEFLTEALPVKLIGMNCTLMKQYIEFVADRLMLELGFSKVFRVENPFDFMENISLEGKTNFFEKRVGEYQRMGVMSSPTENSFTLDADF [RRM2]", "System": "HeLa Kyoto", "thermal stability score": -6.63}
{"Substance": "MAITLEEAPWLGWLLVKALMRFAFMVVNNLVAIPSYICYVIILQPLRVLDSKRFWYIEGIMYKWLLGMVASWGWYAGYTVMEWGEDIKAVSKDEAVMLVNHQATGDVCTLMMCLQDKGLVVAQMMWLMDHIFKYTNFGIVSLVHGDFFIRQGRSYRDQQLLLLKKHLENNYRSRDRKWIVLFPEGGFLRKRRETSQAFAKKNNLPFLTNVTLPRSGATKIILNALVAQQKNGSPAGGDAKELDSKSKGLQWIIDTTIAYPKAEPIDIQTWILGYRKPTVTHVHYRIFPIKDVPLETDDLTTWLYQRFVEKEDLLSHFYETGAFPPSKGHKEAVSREMTLSNLWIFLIQSFAFLSGYMWYNIIQYFYHCLF [LPGAT1]", "System": "HeLa Kyoto", "thermal stability score": 0.187}

Shift focus to the following entry.
Read off the recorded thermal stability score for MALRACGLIIFRRCLIPKVDNNAIEFLLLQASDGIHHWTPPKGHVEPGEDDLETALRETQEEAGIEAGQLTIIEGFKRELNYVARNKPKTVIYWLAEVKDYDVEIRLSHEHQAYRWLGLEEACQLAQFKEMKAALQEGHQFLCSIEA [NUDT2]
-0.841

Reference source for all entries: the supplement of paper PMC5998384
